# Tested on: HOS
# protocol_details: Cytotoxicity against HOS cells assessed as reduction in cell viability after 48 hrs by ATPLite luminescence assay
# Type: cell-based
# condition_label: human, hos, 48 h
metric_name: CC50

As a guide, the following entries are already answered.
1) Nc1c(C(=O)NCc2ccc(F)cc2F)c(=O)n(O)c2ncc(CCCOCCO)cc12: > 250 µM
2) O=C(NCc1ccc(F)cc1F)c1c(NCCO)c2cc(CCCCCO)cnc2n(O)c1=O: > 250 µM

Dear colleague, could you send me CC50 for each of the items below? Thanks.
1. Nc1c(C(=O)NCc2ccc(F)cc2F)c(=O)n(O)c2ncc(CCCC3CCCCC3)cc12
2. Nc1c(C(=O)NCc2ccc(F)cc2F)c(=O)n(O)c2ncc(CCCCc3ccccc3)cc12
3. CN(C)C(=O)/C=C/c1cnc2c(c1)c(N)c(C(=O)NCc1ccc(F)cc1F)c(=O)n2O
4. COc1ccc2c(O)c(C(=O)NCc3ccc(F)cc3F)c(=O)n(O)c2n1
5. CN(C)CCCc1cnc2c(c1)c(N)c(C(=O)NCc1ccc(F)cc1F)c(=O)n2O
6. Nc1c(C(=O)NCc2ccc(F)cc2F)c(=O)n(O)c2ncc(/C=C/C(=O)NCCO)cc12
7. Nc1c(C(=O)NCc2ccc(F)cc2F)c(=O)n(O)c2ncc(CCC(=O)O)cc12

**A:**
27.4 µM
13 µM
> 250 µM
12 µM
5 µM
> 250 µM
> 250 µM

* * *

# Test system: Human immunodeficiency virus 1
# protocol_details: Antiviral activity against VSV-G pseudotyped HIV1 harboring integrase Y143R mutant infected in HOS cells pretreated […] for 3 hrs followed by viral infection measured after 48 hrs by luciferase reporter gene assay
# Assay type: functional, cell-based
# condition_label: Human immunodeficiency virus 1, HOS
metric_name: EC50 (nM)
Give bare numbers, in nM.

1) Nc1c(C(=O)NCc2ccc(F)cc2F)c(=O)n(O)c2ncc(CCCCCO)cc12: 3
2) CN(C)C(=O)CCc1cnc2c(c1)c(N)c(C(=O)NCc1ccc(F)cc1F)c(=O)n2O: 6
3) Nc1c(C(=O)NCc2ccc(F)cc2F)c(=O)n(O)c2ncc(CCCC3CCCCC3)cc12: 112

For each of the compounds below, note its EC50.
1. COC(=O)CCc1cnc2c(c1)c(NCCO)c(C(=O)NCc1ccc(F)cc1F)c(=O)n2O
2. COC(=O)CNc1c(C(=O)NCc2ccc(F)cc2F)c(=O)n(O)c2nc(OC)ccc12
3. O=C(NCc1ccc(F)cc1F)c1c(O)c2cc(CCCCCO)cnc2n(O)c1=O
4. Nc1c(C(=O)NCc2ccc(F)cc2F)c(=O)n(O)c2ncc(CCC(=O)O)cc12

**A:**
3.8
52
8.3
4.9

Could you report EC50 for every entry in the following list?
1. Nc1c(C(=O)NCc2ccc(F)cc2F)c(=O)n(O)c2ncc(CCCOCCO)cc12
2. CC(=O)OCCCCCc1cnc2c(c1)c(NCCO)c(C(=O)NCc1ccc(F)cc1F)c(=O)n2O
3. CN(C)C(=O)/C=C/c1cnc2c(c1)c(N)c(C(=O)NCc1ccc(F)cc1F)c(=O)n2O
4. Nc1c(C(=O)NCc2ccc(F)cc2F)c(=O)n(O)c2ncc(CCc3ccccc3)cc12

**A:**
[1.2, 4.1, 7.2, 5.5]

* * *

# Tested on: Human immunodeficiency virus 1
# protocol_details: Antiviral activity against VSV-G pseudotyped HIV1 harboring integrase N155H mutant infected in HOS cells pretreated […] for 3 hrs followed by viral infection measured after 48 hrs by luciferase reporter gene assay
# Type: functional, cell-based
# condition_label: Human immunodeficiency virus 1, HOS
pEC50: −log10 of the molar value.
Where pEC50 equals or exceeds 8, the correct label is True; where it does not, the label is False.

1) Nc1c(C(=O)NCc2ccc(F)cc2F)c(=O)n(O)c2ncc(CCCC3CCCCC3)cc12: False
2) CC(=O)OCCCc1cnc2c(c1)c(N)c(C(=O)NCc1ccc(F)cc1F)c(=O)n2O: True
3) CN(C)CCCc1cnc2c(c1)c(N)c(C(=O)NCc1ccc(F)cc1F)c(=O)n2O: False
4) Nc1c(C(=O)NCc2ccc(F)cc2F)c(=O)n(O)c2ncc(CCCOCCO)cc12: True
5) COC(=O)CCc1cnc2c(c1)c(NCCO)c(C(=O)NCc1ccc(F)cc1F)c(=O)n2O: True

Please examine the following record next.
**Q:** Threshold query (pEC50 >= 8) on COc1ccc2c(N)c(C(=O)NCc3ccc(F)cc3F)c(=O)n(O)c2n1
**A:** False

* * *

Please go through the items and note down their CC50.
# Test system: HOS
# protocol_details: Cytotoxicity against HOS cells assessed as reduction in cell viability after 48 hrs by ATPLite luminescence assay
# Assay type: cell-based
# condition_label: human, hos, 48 h

These solved cases illustrate the format of a correct answer.
1) CC(C)NC(=O)CCc1cnc2c(c1)c(N)c(C(=O)NCc1ccc(F)cc1F)c(=O)n2O: > 250 µM
2) Nc1c(C(=O)NCc2ccc(F)cc2F)c(=O)n(O)c2ncc(CCc3ccccc3)cc12: 18 µM
3) COC(=O)CNc1c(C(=O)NCc2ccc(F)cc2F)c(=O)n(O)c2ncc(CCCCCO)cc12: > 250 µM
4) COC(=O)CNc1c(C(=O)NCc2ccc(F)cc2F)c(=O)n(O)c2nc(OC)ccc12: 12 µM

Let us examine a further case.
**Q:** Consider the compound COC(=O)CCc1cnc2c(c1)c(N)c(C(=O)NCc1ccc(F)cc1F)c(=O)n2O . State its measured CC50.
**A:** > 250 µM

* * *

# System: Human immunodeficiency virus 1
# protocol_details: Antiviral activity against VSV-G pseudotyped HIV1 harboring integrase Y143R mutant infected in HOS cells pretreated […] for 3 hrs followed by viral infection measured after 48 hrs by luciferase reporter gene assay
# Type: functional, cell-based
# condition_label: Human immunodeficiency virus 1, HOS
metric_name: pEC50
One number for each entry, as −log10 of the molar value.

# example entries with known answers
1. COC(=O)CCc1cnc2c(c1)c(N)c(C(=O)NCc1ccc(F)cc1F)c(=O)n2O: 9.17
2. CC(C)NC(=O)CCc1cnc2c(c1)c(N)c(C(=O)NCc1ccc(F)cc1F)c(=O)n2O: 8.06
3. O=C(NCc1ccc(F)cc1F)c1c(NCCO)c2cc(CCCCCO)cnc2n(O)c1=O: 7.92
4. COC(=O)CNc1c(C(=O)NCc2ccc(F)cc2F)c(=O)n(O)c2ncc(CCCCCO)cc12: 8.46
5. Nc1c(C(=O)NCc2ccc(F)cc2F)c(=O)n(O)c2ncc(CCCCc3ccccc3)cc12: 8.33
6. CC(=O)OCCCc1cnc2c(c1)c(N)c(C(=O)NCc1ccc(F)cc1F)c(=O)n2O: 8.54
7. COc1ccc2c(N)c(C(=O)NCc3ccc(F)cc3F)c(=O)n(O)c2n1: 7.21
8. CN(C)CCCc1cnc2c(c1)c(N)c(C(=O)NCc1ccc(F)cc1F)c(=O)n2O: 8.15

**Q:** Give pEC50; test system Human immunodeficiency virus 1; compound CC(C)NC(=O)/C=C/c1cnc2c(c1)c(N)c(C(=O)NCc1ccc(F)cc1F)c(=O)n2O
**A:** 7.96

* * *

Would you mind telling me the reported EC50 of each entry?
# Tested on: Human immunodeficiency virus 1
# protocol_details: Antiviral activity against VSV-G pseudotyped HIV1 harboring integrase H51Y/R263K double mutant infected in HOS cells pretreated […] for 3 hrs followed by viral infection measured after 48 hrs by luciferase reporter gene assay
# Type: functional, cell-based
# condition_label: Human immunodeficiency virus 1, HOS
Your reply should be a number followed by the unit it is expressed in.

Sample records with EC50:
1) O=C(NCc1ccc(F)cc1F)c1c(NCCO)c2cc(CCCCCO)cnc2n(O)c1=O: 31 nM
2) CC(=O)OCCCCCc1cnc2c(c1)c(NCCO)c(C(=O)NCc1ccc(F)cc1F)c(=O)n2O: 15 nM
3) CC(=O)OCCCc1cnc2c(c1)c(N)c(C(=O)NCc1ccc(F)cc1F)c(=O)n2O: 3.9 nM

Please look at the items below and tell me EC50 for each one, in order.
1. COC(=O)CCc1cnc2c(c1)c(NCCO)c(C(=O)NCc1ccc(F)cc1F)c(=O)n2O
2. Nc1c(C(=O)NCc2ccc(F)cc2F)c(=O)n(O)c2ncc(CCCCCO)cc12
3. COC(=O)CCc1cnc2c(c1)c(N)c(C(=O)NCc1ccc(F)cc1F)c(=O)n2O

**A:**
["2.5 nM", "2.6 nM", "2.4 nM"]

* * *

Can you tell me pIC50 for the items I'm about to list?
# protocol_details: Inhibition of HIV1 integrase strand transfer activity using 5'-end 32P labeled DNA substrate measured after 2 hrs by PAGE based phosphor imaging method
# Set-up: species or system Human immunodeficiency virus 1
One number for each entry, as −log10 of the molar value.

# example entries with known answers
1) COC(=O)CCc1cnc2c(c1)c(NCCO)c(C(=O)NCc1ccc(F)cc1F)c(=O)n2O: 8.51
2) O=C(NCc1ccc(F)cc1F)c1c(O)c2ccc(N3CCCCC3)nc2n(O)c1=O: 4.15
3) Nc1c(C(=O)NCc2ccc(F)cc2F)c(=O)n(O)c2ncc(CCc3ccccc3)cc12: 7.85
4) CC(C)NC(=O)CCc1cnc2c(c1)c(N)c(C(=O)NCc1ccc(F)cc1F)c(=O)n2O: 8.70
5) Nc1c(C(=O)NCc2ccc(F)cc2F)c(=O)n(O)c2nc(N3CCOCC3)ccc12: 4.27

// each listed compound needs a value for pIC50
1. Nc1c(C(=O)NCc2ccc(F)cc2F)c(=O)n(O)c2ncc(CCC(=O)O)cc12
2. CN(C)C(=O)/C=C/c1cnc2c(c1)c(N)c(C(=O)NCc1ccc(F)cc1F)c(=O)n2O
3. CC(C)NC(=O)/C=C/c1cnc2c(c1)c(N)c(C(=O)NCc1ccc(F)cc1F)c(=O)n2O
4. CN(C)CCCc1cnc2c(c1)c(N)c(C(=O)NCc1ccc(F)cc1F)c(=O)n2O
5. COC(=O)CNc1c(C(=O)NCc2ccc(F)cc2F)c(=O)n(O)c2nc(N3CCOCC3)ccc12
6. Nc1c(C(=O)NCc2ccc(F)cc2F)c(=O)n(O)c2ncc(CCCOCCO)cc12
7. COc1ccc2c(O)c(C(=O)NCc3ccc(F)cc3F)c(=O)n(O)c2n1

**A:**
1: 8.40; 2: 8.30; 3: 8.22; 4: 7.85; 5: 5.21; 6: 8.70; 7: 7.48

Dear colleague, could you please provide pIC50 for the compounds listed below?
1. COC(=O)CNc1c(C(=O)NCc2ccc(F)cc2F)c(=O)n(O)c2nc(OC)ccc12
2. Nc1c(C(=O)NCc2ccc(F)cc2F)c(=O)n(O)c2ncc(CCC(=O)NCCO)cc12
3. O=C(NCc1ccc(F)cc1F)c1c(NCCO)c2cc(CCCCCO)cnc2n(O)c1=O
4. COC(=O)CNc1c(C(=O)NCc2ccc(F)cc2F)c(=O)n(O)c2ncc(CCCCCO)cc12
5. CC(=O)OCCCc1cnc2c(c1)c(N)c(C(=O)NCc1ccc(F)cc1F)c(=O)n2O
6. O=C(NCc1ccc(F)cc1F)c1c(O)c2ccc(N3CCOCC3)nc2n(O)c1=O
7. Nc1c(C(=O)NCc2ccc(F)cc2F)c(=O)n(O)c2ncc(/C=C/C(=O)NCCO)cc12

**A:**
1. 7.38
2. 8.70
3. 8.60
4. 8.40
5. 8.00
6. 5.72
7. 8.15

Data origin, for the record: ChEMBL document CHEMBL4038328
